- target-or-test-system: human TLR7 (Homo sapiens, UniProt Q9NYK1)
- Construct: host or cells: HEK293 reporter cells
- Sequence (Q9NYK1 27-1049): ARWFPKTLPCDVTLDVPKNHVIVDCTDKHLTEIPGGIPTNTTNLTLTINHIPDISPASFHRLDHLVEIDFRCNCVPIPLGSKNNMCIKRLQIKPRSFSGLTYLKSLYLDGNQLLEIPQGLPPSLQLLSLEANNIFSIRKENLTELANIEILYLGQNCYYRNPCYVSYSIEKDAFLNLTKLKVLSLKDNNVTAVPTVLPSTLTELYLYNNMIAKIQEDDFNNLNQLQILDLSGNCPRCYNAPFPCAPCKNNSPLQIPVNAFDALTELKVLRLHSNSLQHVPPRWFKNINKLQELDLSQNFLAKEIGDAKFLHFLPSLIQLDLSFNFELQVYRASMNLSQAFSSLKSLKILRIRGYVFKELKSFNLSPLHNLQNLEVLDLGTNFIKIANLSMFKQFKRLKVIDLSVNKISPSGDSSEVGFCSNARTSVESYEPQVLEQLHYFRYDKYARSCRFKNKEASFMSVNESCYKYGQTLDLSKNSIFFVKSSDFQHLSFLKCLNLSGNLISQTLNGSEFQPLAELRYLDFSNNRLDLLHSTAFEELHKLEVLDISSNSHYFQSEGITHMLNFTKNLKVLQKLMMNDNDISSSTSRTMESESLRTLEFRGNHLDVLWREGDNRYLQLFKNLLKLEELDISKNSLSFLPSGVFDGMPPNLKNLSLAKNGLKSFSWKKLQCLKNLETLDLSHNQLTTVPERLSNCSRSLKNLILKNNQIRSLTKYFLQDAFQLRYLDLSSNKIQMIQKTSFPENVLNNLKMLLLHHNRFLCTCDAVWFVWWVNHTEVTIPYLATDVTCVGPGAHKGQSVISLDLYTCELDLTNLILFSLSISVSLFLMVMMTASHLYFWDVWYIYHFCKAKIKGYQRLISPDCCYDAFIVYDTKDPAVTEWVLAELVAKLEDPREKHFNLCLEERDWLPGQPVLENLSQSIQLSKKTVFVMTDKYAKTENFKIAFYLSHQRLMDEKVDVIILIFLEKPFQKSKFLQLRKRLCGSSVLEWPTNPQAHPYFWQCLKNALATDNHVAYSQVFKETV
- protocol-description: HEK293 NFKB reporter assay, human TLR7
- Type: cell-based
- condition-description: Table 1b; HEK293 reporter cells expressing human TLR7; read-out: HEK293 hTLR7 EC50
Below, each of the compounds is paired with its reported EC50 value.

Answered cases to consult:
>>> print(df.to_string())
                                   compound  quantity_name  test_value
0  CCCN(CCC(F)(F)F)C(=O)C1=Cc2ccc(-c3cccc(S(=O)(=O)N4CC(CO)C4)c3)cc2N=C(N)C1 [Bz-31]           EC50      > 9 µM
1  CCCN(CCCOCCCN)C(=O)C1=Cc2ccc(-c3cccc(S(=O)(=O)N4CC(CO)C4)c3)cc2N=C(N)C1 [Bz-18]           EC50     1.99 µM
2  CCCN(C/C=C/CN)C(=O)C1=Cc2ccc(-c3cccc(S(=O)(=O)N4CC(CO)C4)c3)cc2N=C(N)C1 [Bz-22]           EC50      > 9 µM

## Task Please indicate EC50 recorded for CCCN(CCc1ccc(OC)cc1)C(=O)C1=Cc2ccc(-c3cccc(S(=O)(=O)N4CC(CO)C4)c3)cc2N=C(N)C1 [Bz-25]
## Result > 9 µM

## Task Please indicate EC50 recorded for CCCN(CCCNC(=O)CC(C)(C)C)C(=O)C1=Cc2ccc(-c3cccc(S(=O)(=O)N4CC(CO)C4)c3)cc2N=C(N)C1 [Bz-19]
## Result 1.07 µM

## Task Please indicate EC50 recorded for CCCN(OCC)C(=O)C1=Cc2ccc(-c3cccc(S(=O)(=O)N4CC(CO)C4)c3)cc2N=C(N)C1 [Bz-29]
## Result > 9 µM

## Task Please indicate EC50 recorded for CCCN(CC#CCNC(=O)OC(C)(C)C)C(=O)C1=Cc2ccc(-c3cccc(S(=O)(=O)N4CC(CO)C4)c3)cc2N=C(N)C1 [Bz-26]
## Result > 9 µM
